- assay.system: Peroxisome proliferator-activated receptor delta (Homo sapiens)
- Sequence (Q03181 whole entry): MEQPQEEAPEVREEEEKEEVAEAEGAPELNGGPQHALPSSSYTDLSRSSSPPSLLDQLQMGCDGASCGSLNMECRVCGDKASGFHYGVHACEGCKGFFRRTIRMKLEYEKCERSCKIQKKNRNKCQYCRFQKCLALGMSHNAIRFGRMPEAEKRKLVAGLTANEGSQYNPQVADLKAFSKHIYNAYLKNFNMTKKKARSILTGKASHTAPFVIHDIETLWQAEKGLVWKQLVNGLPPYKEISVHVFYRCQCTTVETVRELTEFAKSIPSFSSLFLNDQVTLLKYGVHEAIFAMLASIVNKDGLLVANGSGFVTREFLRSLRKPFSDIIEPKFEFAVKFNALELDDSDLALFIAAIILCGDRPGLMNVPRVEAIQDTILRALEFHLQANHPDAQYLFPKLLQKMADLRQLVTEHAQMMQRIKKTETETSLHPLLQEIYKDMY
Catalogue of pEC50 values
Worth noting: pEC50 values are minus log10 of concentrations stated in mol/L.

Use these answered entries as a reference point.
>  <sample.smiles>
COc1ccc(-c2nc(COc3ccc(OCC(=O)O)c(C)c3)sc2-c2ccc(C(F)(F)F)cc2)cc1

>  <assay.system>
Peroxisome proliferator-activated receptor delta (Homo sapiens)

>  <pEC50>
7.40

$$$$
>  <sample.smiles>
Cc1cc(OCc2nc(-c3ccc(NS(C)(=O)=O)cc3)c(-c3ccc(OC(F)(F)F)cc3)s2)ccc1OCC(=O)O

>  <assay.system>
Peroxisome proliferator-activated receptor delta (Homo sapiens)

>  <pEC50>
6.11

$$$$
>  <sample.smiles>
COc1ccc(-c2nc(COc3ccc(OCC(=O)O)c(C)c3)sc2-c2ccc(Cl)cc2)cc1

>  <assay.system>
Peroxisome proliferator-activated receptor delta (Homo sapiens)

>  <pEC50>
7.22

$$$$
>  <sample.smiles>
COc1ccc(-c2nc(CSc3ccc(OCC(=O)O)c(C)c3)oc2-c2ccc(OC)cc2)cc1

>  <assay.system>
Peroxisome proliferator-activated receptor delta (Homo sapiens)

>  <pEC50>
6.18

$$$$
>  <sample.smiles>
Cc1cc(OCc2nc(-c3ccc(N4CCOCC4)nc3)c(-c3ccc(OC(F)(F)F)cc3)s2)ccc1OCC(=O)O

>  <assay.system>
Peroxisome proliferator-activated receptor delta (Homo sapiens)

>  <pEC50>
7.74

$$$$
>  <sample.smiles>
COc1ccc(-c2nc(COc3ccc4c(ccn4CC(=O)O)c3)sc2-c2ccc(C(F)(F)F)cc2)cc1

>  <assay.system>
Peroxisome proliferator-activated receptor delta (Homo sapiens)

>  <pEC50>
6.47

$$$$

Looking for the measured pEC50 of "COc1cccc(-c2nc(COc3ccc(OCC(=O)O)c(C)c3)sc2-c2ccc(OC(F)(F)F)cc2)c1" , can you help?
6.92

Looking for the measured pEC50 of "COc1ccc(-c2nc(COc3ccc(OCC(=O)O)c(C)c3)oc2-c2ccc(Cl)cc2)cc1" , can you help?
7.30

====

- assay.system: Peroxisome proliferator-activated receptor alpha (Homo sapiens, UniProt Q07869)
- Sequence (Q07869 whole entry): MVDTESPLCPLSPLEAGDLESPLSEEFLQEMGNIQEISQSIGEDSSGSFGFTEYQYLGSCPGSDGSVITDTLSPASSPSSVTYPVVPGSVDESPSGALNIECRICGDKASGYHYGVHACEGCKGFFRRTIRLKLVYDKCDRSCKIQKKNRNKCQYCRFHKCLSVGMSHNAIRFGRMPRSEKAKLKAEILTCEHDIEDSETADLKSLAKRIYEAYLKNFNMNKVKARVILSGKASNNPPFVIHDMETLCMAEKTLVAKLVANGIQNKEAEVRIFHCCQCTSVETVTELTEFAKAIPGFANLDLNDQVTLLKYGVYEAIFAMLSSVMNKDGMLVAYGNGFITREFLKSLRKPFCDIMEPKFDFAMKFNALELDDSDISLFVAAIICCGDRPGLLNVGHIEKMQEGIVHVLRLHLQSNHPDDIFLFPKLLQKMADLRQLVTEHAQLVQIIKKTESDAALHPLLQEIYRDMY
- protocol.notes: Agonist activity at human PPARalpha ligand binding domain expressed in human 293T cells co-transfected with Gal4-DBD by luciferase transactivation assay
- Format: cell-based
- study.conditions: read-out: EC50
Catalogue of EC50 values
Please give a number only; it is taken to be in nM.

>  <compound>
Cc1cc(OCc2nc(-c3ccc(OC(C)C)nc3)c(-c3ccc(OC(F)(F)F)cc3)o2)ccc1OCC(=O)O

>  <assay.system>
Peroxisome proliferator-activated receptor alpha (Homo sapiens, UniProt Q07869)

>  <observed.result>
790

$$$$

As a next step, examine the compound that follows.
Looking for the measured EC50 of COc1ccc(-c2nc(Sc3cccc(C(C)C(=O)O)c3)sc2-c2ccc(OC)cc2)cc1 (centres undefined) , can you help?
300
